- Test system: Puccinia recondita f. sp. tritici
- protocol notes: Test G: wheat leaf rust, preventive spray on wheat seedlings, visual disease rating
- condition context: rating without asterisk; 100 = 100% disease control, 0 = no disease control relative to the controls
value type: Test G rating (disease control) (%)
Write the number in % without appending the unit.

Worked set:
- compound: "O=C(Nc1ccccc1-c1cc(F)c(-n2ccc(C(F)(F)F)n2)c(F)c1)c1ncccc1C(F)(F)F"
  value type: "Test G rating (disease control)"
  result number: 100
- compound: "O=C(NCCc1ccc(-n2ccc(C(F)(F)F)n2)cc1)c1ccccc1C(F)(F)F"
  value type: "Test G rating (disease control)"
  result number: 0
- compound: "CC(Cc1ccc(-n2ccc(C(F)(F)F)n2)cc1Cl)NC(=O)c1nccnc1Cl (stereo not shown)"
  value type: "Test G rating (disease control)"
  result number: 54
- compound: "Cn1cc(C(=O)Nc2ccccc2-c2cc(F)c(-n3ccc(C(F)(F)F)n3)c(F)c2)c(C(F)F)n1"
  value type: "Test G rating (disease control)"
  result number: 100

// recorded Test G rating (disease control) for O=C(NCCc1ncc(-n2ccc(C(F)(F)F)n2)cc1Cl)c1ccccc1C(F)(F)F : 0

// recorded Test G rating (disease control) for O=C(Nc1ccccc1-c1cc(F)c(-n2ccc(C(F)(F)F)n2)c(F)c1)c1cccnc1Cl : 100

// recorded Test G rating (disease control) for O=C(NCCc1ccc(-n2ccc(C(F)(F)F)n2)cc1Cl)c1ncccc1C(F)(F)F : 0

====

Test E rating (disease control) by entry:
- Tested on: Septoria nodorum
- protocol notes: Test E: Septoria glume blotch, preventive spray on wheat seedlings, visual disease rating
- Assay type: in vivo
- condition context: rating without asterisk; 100 = 100% disease control, 0 = no disease control relative to the controls
Write the number in % without appending the unit.

Worked set:
- compound: "Cn1cc(C(=O)Nc2ccccc2-c2cc(F)c(-n3ccc(C(F)(F)F)n3)c(F)c2)c(C(F)F)n1 [Compound 173]"
  tgt: "Septoria nodorum"
  Test E rating (disease control) / %: 100
- compound: "O=C(Nc1ccccc1-c1cc(F)c(-n2ccc(C(F)(F)F)n2)c(F)c1)c1ncccc1C(F)(F)F [Compound 172]"
  tgt: "Septoria nodorum"
  Test E rating (disease control) / %: 100
- compound: "O=C(NCCc1ccc(-n2ccc(C(F)(F)F)n2)cc1)c1ccccc1C(F)(F)F [Compound 5]"
  tgt: "Septoria nodorum"
  Test E rating (disease control) / %: 0
- compound: "O=C(NCCc1ccc(-n2ccc(C(F)(F)F)n2)cc1Cl)c1ncccc1C(F)(F)F [Compound 40]"
  tgt: "Septoria nodorum"
  Test E rating (disease control) / %: 100
- compound: "CC(Cc1ccc(-n2ccc(C(F)(F)F)n2)cc1Cl)NC(=O)c1nccnc1Cl (stereo not shown) [Compound 1]"
  tgt: "Septoria nodorum"
  Test E rating (disease control) / %: 100
- compound: "O=C(NCCc1ncc(-n2ccc(C(F)(F)F)n2)cc1Cl)c1ccccc1C(F)(F)F [Compound 85]"
  tgt: "Septoria nodorum"
  Test E rating (disease control) / %: 100

Please look at the following compound next.
GET /values?item= O=C(Nc1ccccc1-c1cc(F)c(-n2ccc(C(F)(F)F)n2)c(F)c1)c1cccnc1Cl [Compound 170] &system= Septoria nodorum returns Test E rating (disease control): 0

Just for reference, patent US8815772B2 is where these values come from.
